These data points were gathered from PubChem BioAssay (Tox21).

- Target or test system: Estrogen receptor (Homo sapiens) (UniProt P03372)
- Sequence (P03372 whole entry, looked up): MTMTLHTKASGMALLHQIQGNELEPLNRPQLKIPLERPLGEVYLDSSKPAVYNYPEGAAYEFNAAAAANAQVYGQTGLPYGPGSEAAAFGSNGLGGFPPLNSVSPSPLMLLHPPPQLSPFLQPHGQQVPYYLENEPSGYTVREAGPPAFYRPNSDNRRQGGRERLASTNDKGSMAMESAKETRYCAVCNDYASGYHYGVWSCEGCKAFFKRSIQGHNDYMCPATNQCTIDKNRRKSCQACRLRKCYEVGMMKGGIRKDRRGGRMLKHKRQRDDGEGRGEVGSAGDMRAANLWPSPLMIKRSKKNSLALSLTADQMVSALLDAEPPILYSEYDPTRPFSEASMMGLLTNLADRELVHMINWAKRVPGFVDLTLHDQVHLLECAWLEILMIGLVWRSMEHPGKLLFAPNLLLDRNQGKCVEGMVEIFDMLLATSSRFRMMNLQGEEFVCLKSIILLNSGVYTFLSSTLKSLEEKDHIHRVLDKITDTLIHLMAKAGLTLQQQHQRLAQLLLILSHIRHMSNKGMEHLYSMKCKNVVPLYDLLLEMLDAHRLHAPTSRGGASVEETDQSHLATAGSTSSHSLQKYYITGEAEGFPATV
- Assay procedure: qHTS assay to identify small molecule agonists of the estrogen receptor alpha (ER-alpha) signaling pathway using the BG1 cell line (AID 743079); further: on the % scale 0 is the no-effect control and ±100 the full control effect; nearly all actives have a fitted effect of over 20% in size
- Condition label: BG1Luc4E2 cells, ERE-luciferase agonist, 22 h; at 95 µM (top of the series)
Inconclusive results are not listed.
Readout kind: activation (%)

1. ClCC(Cl)(Cl)Cl ... 9.47
2. O=C(Cc1ccccc1)OCc1ccccc1 ... 2.04
3. O=C(O)C(Br)CBr (centres undefined) ... -6.3
4. Cc1nc(N)nc(N)n1 ... 2.81
5. ClC(Cl)C(Cl)Cl ... -0.198
6. O=C1OC(=O)C2C1C1(Cl)C(Cl)=C(Cl)C2(Cl)C1(Cl)Cl (centres undefined) ... -12.2
7. ClC(Cl)(Cl)C(Cl)(Cl)Cl ... -4.65
8. CC(=O)C(Cl)Cl ... 0.96
9. [Cl][Sn]([Cl])([Cl])[Cl] ... -3.53
10. CCC/C(=N\OCC)C1=C(O)CC(CC(C)SCC)CC1=O (centres undefined) ... -1.67
11. N#Cc1ccncc1 ... 1.2
12. CCC1(c2ccccc2)C(=O)NC(=O)NC1=O ... -10.3
13. CCCSC(=O)Cl ... 3.93
14. CC(=O)CC(c1ccc(Cl)cc1)c1c(O)c2ccccc2oc1=O (centres undefined) ... -6.05

---

- Assay procedure: qHTS assay to test for compound auto fluorescence at 590 nm (red) in HepG2 cells (AID 720674); further: on the % scale 0 is the no-effect control and ±100 the full control effect
- Condition label: HepG2 autofluorescence, red 540/590 nm, 1 h; series mostly up to 91.3 µM
Active and inactive are the calls of the source. Calls come from the whole dose curve; as a rule, active = well fitted curve in the direction sought with a large enough effect in the repeat runs; inconclusive = weak or mixed curves; inactive = flat fitted curve, though single readings scatter.
Readout kind: fluorescence, relative to Rose Bengal

1) CCN(Cc1ccc(Cl)nc1)/C(=C/[N+](=O)[O-])NC ... inactive
2) CC(C)COP(=O)(OCC(C)C)OCC(C)C ... inactive
3) CN/C(=N\[N+](=O)[O-])NCC1CCOC1 (stereo not given) ... inactive
4) CCOC(=O)NC(=S)Nc1ccccc1NC(=S)NC(=O)OCC ... inactive
5) CCCCCCBr ... inactive
6) COC(=O)C1=CCCN(C)C1 ... inactive
7) CC1CCCCC1NC(=O)Nc1ccccc1 (stereo not given) ... inactive
8) CCCCOP(=O)(O)OCCCC ... inactive
9) O=C(Cc1ccccc1)OCc1ccccc1 ... inactive
10) CC(COc1ccc(Oc2ccccc2)cc1)Oc1ccccn1 (stereo not given) ... inactive
11) CC1CCC(=O)O1 (stereo not given) ... inactive
12) C[N+](C)=CCl ... inactive
13) O=C(Oc1ccc(Br)cc1)N1CCN2CCC1CC2 ... inactive
14) ClCC(Cl)(Cl)Cl ... inactive
15) O=C(NCO)NCO ... inactive

---

- Target or test system: Acetylcholinesterase (Homo sapiens) (UniProt P22303)
- Sequence (P22303 whole entry, looked up): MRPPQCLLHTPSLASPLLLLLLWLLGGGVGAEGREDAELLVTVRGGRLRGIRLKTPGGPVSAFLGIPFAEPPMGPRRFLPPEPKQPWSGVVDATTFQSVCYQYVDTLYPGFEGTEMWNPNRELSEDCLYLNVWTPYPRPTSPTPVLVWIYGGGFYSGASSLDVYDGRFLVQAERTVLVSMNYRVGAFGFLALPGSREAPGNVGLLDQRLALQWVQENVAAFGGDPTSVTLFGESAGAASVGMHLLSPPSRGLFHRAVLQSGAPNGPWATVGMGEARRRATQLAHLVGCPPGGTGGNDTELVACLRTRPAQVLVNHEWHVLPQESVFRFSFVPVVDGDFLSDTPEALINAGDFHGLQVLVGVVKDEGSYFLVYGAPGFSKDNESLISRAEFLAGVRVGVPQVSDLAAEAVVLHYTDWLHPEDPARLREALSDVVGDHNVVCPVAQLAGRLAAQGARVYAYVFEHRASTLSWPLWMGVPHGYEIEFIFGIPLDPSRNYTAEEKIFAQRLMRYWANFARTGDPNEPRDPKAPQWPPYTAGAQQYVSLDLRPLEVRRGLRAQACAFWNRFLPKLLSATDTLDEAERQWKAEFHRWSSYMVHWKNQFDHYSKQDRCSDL
- Assay procedure: Acetylcholinesterase (AChE) small molecule antagonists: fluorescence cell-based qHTS assay (AID 1347398); further: on the % scale 0 is the no-effect control and ±100 the full control effect; nearly all actives have a fitted effect of over 50% in size
- Condition label: SH-SY5Y cells; AChE activity; series mostly up to 115 µM
- Text: National Center for Advancing Translational Sciences [NCATS] Division of Preclinical Innovation [DPI] U.S. Environmental Protection Agency [EPA] National Institutes of Environmental Health Sciences [NIEHS] National Toxicology Program [NTP] […] A homogenous cell-based assay using Amplitetrade mark Fluorimetric Acetylcholinesterase Assay Kit *Green Fluorescence* (AAT Bioquest, Sunnyvale, CA) was used to evaluate the chemicals in the Tox21 10K library that inhibit AChE activity. […]
Results filed as inconclusive are left out. Active and inactive are the calls of the source. Calls come from the whole dose curve.
Readout kind: outcome

1. Cc1cc(C)nc(Nc2ccccc2)n1 ... inactive
2. COC(C)(C)C ... inactive
3. CCOC(=O)C(c1c(O)c2ccccc2oc1=O)c1c(O)c2ccccc2oc1=O ... inactive
